Just for reference, paper PMC3515450 is where these values come from.

Target: caspase-6 (Homo sapiens, UniProt P55212)
Construct: Residues 24-179 and 194-293 from caspase-6 cDNA (Origene) were cloned into pET-24b and pET-23b vectors; 6x histidine tag (C); made in house; host or cells: E. coli BL21 (DE3) pLysS
Sequence (P55212 24-179): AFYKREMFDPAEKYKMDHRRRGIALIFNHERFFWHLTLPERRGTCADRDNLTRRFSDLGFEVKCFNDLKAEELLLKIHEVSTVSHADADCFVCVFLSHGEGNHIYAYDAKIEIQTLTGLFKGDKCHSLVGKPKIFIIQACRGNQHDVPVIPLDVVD
Sequence (P55212 194-293): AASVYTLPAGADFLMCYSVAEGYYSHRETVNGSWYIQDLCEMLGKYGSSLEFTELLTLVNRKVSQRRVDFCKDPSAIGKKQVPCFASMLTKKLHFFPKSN
Assay: Caspase-6 enzymatic assay with fluorogenic tetrapeptide substrates
Assay type: biochemical
Settings: caspase-6 cleavage of (VEID)2R110 substrate; read-out: IC50 (potency)
READOUT KIND: pIC50
pIC50 is a log-scale quantity: -log10 of the concentration expressed in molar.

Please supply the value of reported pIC50 for the item "COc1ccc(-c2cc(C(=O)N[C@@H](CO)Cc3cccc(C#N)c3)co2)cc1OC"
7.96

---

Molecular target: covalent VEID/caspase-6 complex (Homo sapiens)
Construct: Residues 24-179 and 194-293 from caspase-6 cDNA (Origene) were cloned into pET-24b and pET-23b vectors; 6x histidine tag; made in house; host or cells: E. coli (as above), BirA co-expressed
Sequence (P55212 24-179): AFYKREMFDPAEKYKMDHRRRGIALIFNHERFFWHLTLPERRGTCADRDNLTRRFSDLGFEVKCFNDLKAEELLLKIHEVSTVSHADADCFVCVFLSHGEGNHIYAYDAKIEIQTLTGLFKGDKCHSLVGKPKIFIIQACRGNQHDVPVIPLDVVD
Sequence (P55212 194-293): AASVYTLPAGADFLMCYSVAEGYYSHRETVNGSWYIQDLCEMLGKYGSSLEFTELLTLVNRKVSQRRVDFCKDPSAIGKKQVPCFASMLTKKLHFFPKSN
Test: SPR binding to VEID-FMK-blocked caspase-6
Details: covalent VEID/caspase-6 (acyl enzyme) complex, 1:1 binding
Description: For SPR experiments, caspase-6 was cloned to include a C-terminal avi-tag (Avidity) and expressed and purified as above, except that biotin ligase (BirA) was co-expressed during fermentation. […] A rise in signal could be detected for the binding/reacting of the VEID-FMK and exposure was continued until no additional rise in response was observed (∼45 minutes) indicating full saturation of all binding sites. […]
READOUT KIND: Kd
Reply with the number and its unit after it.

Please supply the value of reported Kd for the item "COc1ccc(-c2cc(C(=O)N[C@@H](CO)Cc3cccc(C#N)c3)co2)cc1OC"
1.3 µM

---

biological target: caspase-3 (Homo sapiens); construct: as the catalytic domain consisting of large p20 and small p10 subunits without prodomain; made in house; assay: Caspase-3 enzymatic assay with divalent R110 substrates; format: biochemical; settings: caspase-3, (VEID)2R110 substrate
Sequence (P42574 29-175 limits assumed): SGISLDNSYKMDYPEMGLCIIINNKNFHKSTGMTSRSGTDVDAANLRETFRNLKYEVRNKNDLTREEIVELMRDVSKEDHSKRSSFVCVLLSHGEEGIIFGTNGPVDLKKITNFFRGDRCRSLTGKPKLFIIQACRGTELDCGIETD
Sequence (P42574 176-277 limits assumed): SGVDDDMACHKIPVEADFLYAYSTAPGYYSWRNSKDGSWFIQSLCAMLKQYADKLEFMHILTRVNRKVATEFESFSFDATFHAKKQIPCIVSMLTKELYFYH
pIC50: −log10 of the molar value.
READOUT KIND: pIC50

Give pIC50; test system caspase-3 (Homo sapiens); molecule COc1ccc(-c2cc(C(=O)N[C@@H](CO)Cc3cccc(C#N)c3)co2)cc1OC [Compound 3]
< 4.00
